biological target: Alkaline phosphatase, tissue-nonspecific isozyme (Homo sapiens) (UniProt P05186); test: human TNAP activity change by analogs – biochemical, selectivity assay for mouse IAP activator project, SAR follow-up (AID 493133); conditions: purified human TNAP enzyme, phosphatase activity counter-screen
Sequence (P05186 whole entry, looked up): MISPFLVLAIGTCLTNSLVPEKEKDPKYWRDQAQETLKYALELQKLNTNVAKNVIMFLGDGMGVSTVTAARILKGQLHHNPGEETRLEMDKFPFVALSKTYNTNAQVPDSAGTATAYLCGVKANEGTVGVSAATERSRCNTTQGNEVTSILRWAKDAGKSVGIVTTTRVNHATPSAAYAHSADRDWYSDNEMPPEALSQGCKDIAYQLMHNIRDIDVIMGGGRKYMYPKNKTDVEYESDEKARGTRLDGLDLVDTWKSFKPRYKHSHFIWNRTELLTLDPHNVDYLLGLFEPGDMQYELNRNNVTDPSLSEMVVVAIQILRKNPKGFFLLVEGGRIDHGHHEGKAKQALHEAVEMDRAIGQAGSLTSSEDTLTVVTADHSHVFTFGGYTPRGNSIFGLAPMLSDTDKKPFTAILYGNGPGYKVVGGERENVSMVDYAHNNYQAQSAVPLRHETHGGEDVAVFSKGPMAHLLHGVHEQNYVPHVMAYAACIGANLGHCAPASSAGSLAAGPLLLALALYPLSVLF
Activity calls are given as the source filed them. How the calls were made is not given here.
Would you mind answering with one of these outcomes? true = active, false = inactive

>  <molecule>
CC(C(=O)Nc1ccc(C(=O)O)cc1)N1C(=O)/C(=C\c2ccco2)SC1=S (stereo not given)

>  <qualitative label>
false

$$$$

Req: Assay result, entry COc1cc(C(=O)NNC(=O)c2n[nH]c3ccccc23)cc(OC)c1OC — outcome?
Resp: true

Req: Called result for CC(C)C(C(=O)NC1CCS(=O)(=O)C1)N1C(=O)/C(=C\c2ccco2)SC1=S (stereo not given)
Resp: false

Req: Called result for O=C(CN1C(=O)/C(=C/c2ccco2)SC1=S)Nc1ccc(C(=O)O)cc1
Resp: false

Req: Tell me the recorded outcome of this test for CN1CCC(=NNC(=O)c2cc(O)c(O)c(O)c2)CC1 .
Resp: false

---

molecular target: Alkaline phosphatase, tissue-nonspecific isozyme (Homo sapiens); experiment: human TNAP activity change by analogs – biochemical, selectivity assay for mouse IAP activator project, SAR follow-up (AID 493133); details: purified human TNAP enzyme, phosphatase activity counter-screen
Calls of active or inactive are those of the source. The rule behind the calls is not given here.
Select the matching outcome among active, inactive

Here are 5 compounds together with their reported answers.
>  <compound>
Cc1ccc(/C=N/NC(=O)c2cc(O)c(O)c(O)c2)cc1

>  <qualitative label>
inactive

$$$$
>  <compound>
NS(=O)(=O)c1ccc(-c2ccc(/C=C3\SC(=S)N(C4CCS(=O)(=O)C4)C3=O)o2)cc1 (stereo unspecified)

>  <qualitative label>
inactive

$$$$
>  <compound>
Cc1ccc(NC(=O)CSc2sc3c(O)cc(=O)[nH]c3c2C#N)c(F)c1

>  <qualitative label>
inactive

$$$$
>  <compound>
O=[N+]([O-])c1ccc(NC(=S)NCCC(c2ccccc2)c2ccccc2)cc1

>  <qualitative label>
inactive

$$$$
>  <compound>
C/C(=N\NC(=O)c1cc(O)c(O)c(O)c1)c1ccncc1

>  <qualitative label>
inactive

$$$$

Req: Please indicate how the test categorized CCOc1ccc2nc(NC(=O)CN(C)S(=O)(=O)c3ccc4[nH]c(=O)oc4c3)sc2c1 .
Resp: inactive

Req: Any idea what this test logged for CC(C(=O)NCCc1ccc(O)c(O)c1)N1C(=O)/C(=C\c2ccco2)SC1=S (stereo unspecified) ?
Resp: inactive

Req: Would you mind telling me which call this test gave CCOC(=O)N1CCC(NC(=O)CSc2sc3c(O)cc(=O)[nH]c3c2C#N)CC1 ?
Resp: inactive

Req: How was COc1ccc(Cl)cc1NC(=O)CSc1sc2c(O)cc(=O)[nH]c2c1C#N classified in this test?
Resp: inactive

Req: Returns: the outcome recorded for CC(C)N1CCC(=NNC(=O)c2cc(O)c(O)c(O)c2)CC1 in this assay.
Resp: inactive

Req: For COc1ccc(OC)c(NC(=O)CSc2sc3c(O)cc(=O)[nH]c3c2C#N)c1 , what call appears in the results of this test?
Resp: inactive

Req: Entry O=S(=O)(Nc1ncccn1)c1ccc(NC(=S)NCCC(c2ccccc2)c2ccccc2)cc1 : call = ?
Resp: inactive

Req: What did this assay record as the result for CC(C(=O)Nc1ccc(C(=O)O)c(O)c1)N1C(=O)/C(=C\c2ccco2)SC1=S (stereo unspecified) ?
Resp: inactive

Req: Please state the recorded outcome for this compound: S=C(NCCC(c1ccccc1)c1ccccc1)Nc1ccc(Cl)cc1Cl
Resp: active

Req: Called result for O=C(CCN1C(=O)/C(=C\c2ccco2)SC1=S)Nc1ccc(C(=O)O)c(O)c1
Resp: inactive

Req: Name the outcome recorded for N#Cc1c(SCC(=O)Nc2ccccc2C(F)(F)F)sc2c(O)cc(=O)[nH]c12 in the assay.
Resp: inactive

---

molecular target: Alkaline phosphatase, tissue-nonspecific isozyme (Homo sapiens); experiment: human TNAP activity change by analogs – biochemical, selectivity assay for mouse IAP activator project, SAR follow-up (AID 493133); details: purified human TNAP enzyme, phosphatase activity counter-screen
Active and inactive are the calls of the source. How the calls were made is not given here.
Entry note: the call must match one of active, inactive

Worked set:
>  <molecule>
O=C(CN1C(=O)/C(=C\c2ccco2)SC1=S)Nc1ccc(C(=O)O)cc1

>  <qualitative label>
inactive

$$$$
>  <molecule>
COc1cc(C(=O)NN=Cc2ccccn2)cc(OC)c1OC

>  <qualitative label>
active

$$$$
>  <molecule>
O=C(CN1C(=O)/C(=C\c2ccco2)SC1=S)Nc1ccccc1C(=O)O

>  <qualitative label>
inactive

$$$$
>  <molecule>
N#Cc1c(SCC(=O)Nc2nncs2)sc2c(O)cc(=O)[nH]c12

>  <qualitative label>
inactive

$$$$
>  <molecule>
COc1ccc(NC(=O)CSc2sc3c(O)cc(=O)[nH]c3c2C#N)c(OC)c1

>  <qualitative label>
inactive

$$$$

Req: Please state the recorded outcome for this molecule: CCOc1ccccc1CNC(=O)CCNS(=O)(=O)c1ccc2[nH]c(=O)oc2c1
Resp: inactive

Req: Give the logged outcome of this assay for the following molecule: O=C(CCCN1C(=O)/C(=C\c2ccco2)SC1=S)Nc1ccc(O)cc1C(=O)O
Resp: inactive

Req: Given N#Cc1cccc(NC(=O)CCNS(=O)(=O)c2ccc3[nH]c(=O)oc3c2)c1 , state the outcome it received in this test.
Resp: inactive

Req: Check the results log: what was the call for O=C(O)CC(C(=O)O)N1C(=O)/C(=C/c2ccc(-c3nc4ccccc4s3)o2)SC1=S (centres undefined) ?
Resp: inactive

Req: Please indicate how the test categorized CCOC(=O)N1CCN(S(=O)(=O)c2ccc3[nH]c(=O)oc3c2)CC1 .
Resp: inactive

Req: What was the test verdict on COc1ccc(NC(=S)NCCC(c2ccccc2)c2ccccc2)cc1 ?
Resp: active

Req: Please share the test call associated with N#Cc1c(SCC(=O)Nc2ccc(C(F)(F)F)cc2)sc2c(O)cc(=O)[nH]c12 .
Resp: inactive

Req: Check the results log: what was the call for O=C(CN1C(=O)/C(=C\c2ccco2)SC1=S)Nc1ccc(O)cc1C(=O)O ?
Resp: inactive

Req: Hi, do you know how CCN(CC)C(=O)CSc1sc2c(O)cc(=O)[nH]c2c1C#N came out in this test?
Resp: inactive

Req: Outcome logged for O=C(C1CCN(S(=O)(=O)c2ccc3[nH]c(=O)oc3c2)CC1)N1CC=C(c2ccccc2)CC1 in this assay:
Resp: inactive

Req: Outcome? O=C(CCN1C(=O)/C(=C/c2ccco2)SC1=S)Nc1ccc(C(=O)O)c(O)c1
Resp: inactive
